- test: small-molecule microarray binders of probe aXIP, primary screen, biochemical, NeuroSMM set, 635/667 nm fluorescence (AID 1119);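 further: probe is the protein aXip251-270 applied at 1 µg/mL to compound-printed slides; binding of probe to printed compounds measured as 667 nm fluorescence plus signal to noise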
- assay context: higher = more signal, called active from +8 up or from −8 down
property measured: composite Z-score
Lab note: record just the number, no unit beside it.

Please review the following examples before continuing.
1) CCOC(=O)[C@H](CC(C)C)NC(=O)CCC1CC(OC(=O)NCCc2ccc(F)cc2)CC2(CCCC(COC(=O)NCC3CCCCC3)O2)O1 (stereo partly specified) : 0.2
2) O=C1[C@H]2[C@H]3[C@H](O)[C@H](O)CC(=NOC[C@@H](O)COCc4ccco4)[C@H]3CC[C@H]2C(=O)N1C[C@@H]1CCCO1 : 0.382
3) CCN1C(=O)[C@H]2[C@H]3[C@H](O)[C@H](O)CC(=NO[C@@H](C)c4cn([C@H](CO)Cc5ccccc5)nn4)[C@@H]3CC[C@H]2C1=O : 0.299
4) CC(=O)OC[C@H]1O[C@H](CC=NO[C@H](C)c2cn([C@H](CO)Cc3ccccc3)nn2)C=C[C@@H]1OC(C)=O : -0.0641

For reference, reported composite Z-score for C#CCCCON=C1[C@H]2CCn3c(=O)n(C)c(=O)n3[C@H]2[C@H](O)[C@@H]2O[C@H]12 stands at -0.496

Looking up CCOC(=O)[C@H](CC(C)C)NC(=O)CCC1CC(OC(=O)NCc2cccc3ccccc23)CC2(CCCC(COC(=O)NCCC(C)C)O2)O1 (stereo partly specified) , I see its composite Z-score listed as -0.136

compound O=c1n(Cc2cc3c(cc2Cl)OCO3)c(=O)n2n1CC[C@@H]1C(=NOCc3ccccc3)[C@H]3O[C@H]3[C@@H](O)[C@@H]12 , composite Z-score observed: 0.0993

----------
- study system: Dickkopf-related protein 1 (Homo sapiens) (UniProt O94907)
- Sequence (O94907 whole entry, looked up): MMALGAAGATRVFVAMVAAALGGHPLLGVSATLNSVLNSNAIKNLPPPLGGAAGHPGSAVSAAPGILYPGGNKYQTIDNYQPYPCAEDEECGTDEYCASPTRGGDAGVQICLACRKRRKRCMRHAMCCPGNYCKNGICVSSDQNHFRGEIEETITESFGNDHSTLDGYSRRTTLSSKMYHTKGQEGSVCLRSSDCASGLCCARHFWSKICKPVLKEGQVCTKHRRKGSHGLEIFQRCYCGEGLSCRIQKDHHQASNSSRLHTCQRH
- test: DKK1 binders on small-molecule microarrays, primary screen, biochemical, small-molecule microarray, 635 nm fluorescence scan (AID 1106);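 further: score merges emission near 667 nm with signal to noise over three replicate slides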
- assay context: DKK1 binding, higher = more signal
property measured: composite z-score
Keep the answer to the number alone.

A selection of reference data follows.
1) COC(=O)CC=C[C@@H](C)[C@@H](C=NOC[C@H]1O[C@H](c2ccccc2)C=C[C@@H]1Oc1ccc(OC)cc1)NS(=O)(=O)c1ccc(C)cc1 : -0.462
2) CC(C)[C@@H](OCc1ccccc1)[C@H](C)C=NOC[C@@H](O)COCc1ccco1 : -1.62
3) CCOC(=O)NN=C1C[C@@H](O)[C@@H](O)[C@@H]2[C@@H]3C(=O)N(C(C)(C)C)C(=O)[C@@H]3CC[C@H]12 : 0.739

So, CCOC(=O)[C@H](CC(C)C)NC(=O)CCC1CC(OC(=O)NCCc2ccc(F)cc2)CC2(CCCC(COC(=O)NCC3CCCCC3)O2)O1 (stereo partly drawn) ? Its composite z-score was 0.479

Entry Cc1cc2c(nc1C)CCCCN2CC(C)ON=C[C@@H](C)[C@H](OCc1ccccc1)C(C)C (stereo partly drawn) ; composite z-score = -0.969

Entry O=C1C[C@@H](O)[C@@H](O)[C@@H]2[C@@H]3C(=O)N(Cc4ccccc4)C(=O)[C@@H]3CC[C@@H]12 , composite z-score reported as 0.59

Looking up CCOC(=O)[C@H](Cc1ccccc1)NC(=O)CCC1CC(OC(=O)NCc2ccc3c(c2)OCO3)CC2(CCCC(COC(=O)NCCc3ccccc3OC)O2)O1 (stereo partly drawn) , I see its composite z-score listed as 0.759

Entry CCOC(=O)NN=C1C[C@@H](O)[C@@H](O)[C@@H]2[C@@H]3C(=O)N([C@@H](C)c4ccccc4)C(=O)[C@@H]3CC[C@H]12 , composite z-score reported as 0.309

In plain terms, CO[C@H]1COC(=O)[C@H](C)NC(=O)CC=C[C@@H](C)[C@H](OC)COC(=O)[C@@H](OCc2ccccc2)C=C[C@@H]1C has a documented composite z-score of 0.834

GET /value?item= O=C1OCCC=C1C(O)CCc1ccccc1 (stereo not drawn) &field=composite z-score returns 0.586

What the record says about O=C1[C@H]2[C@H]3[C@H](O)[C@H](O)CC(=NOCc4ccccc4)[C@@H]3CC[C@H]2C(=O)N1c1ccc(F)cc1F : composite z-score is 0.347

The value of composite z-score measured for the compound C=Cc1ccc([C@H]2N[C@H](C(=O)O)CC[C@@H]2C)cc1 turned out to be 0.723

Field composite z-score (entry COC(=O)[C@H]1O[C@@H](c2c(OC)c(OC)c(C)c(OC)c2OC)[C@H](C)[C@@H](O)[C@H]1C ) reads 0.743

Cited source for all entries: PubChem BioAssay
